# Tested on: P388 leukemia ip, CD2F1 mice, survival T/C
# Assay overview: NCI In Vivo Anticancer Drug Screen. Data for tumor model P388 Leukemia (intraperitoneal) in CD2F1 (CDF1) mice
# Stated conditions: endpoint: median survival time; dose: 12.5 mg/kg/injection; schedule: Q01DX009 (ip); vehicle: Klucel (hydroxypropylcellulose) (HPC); higher = longer survival
# Procedure: The antitumor activity of compounds was measured in mice bearing transplantable tumors. Survival or tumor size were measured and the results are expressed as the measurement made in the treated group (T) divided by the measurement made in the vehicle treated control group (C). The tumor model used in this assay is P388 Leukemia (intraperitoneal) in CD2F1 (CDF1) mice
Inconclusive results and toxic doses are left out.

>  <Compound>
O=C(O)CC(=O)N=c1snc(Nc2ccccc2)n1-c1ccccc1

>  <T/C>
102 % of control

$$$$
>  <Compound>
COc1cc(I)cc(OC)c1OC

>  <T/C>
94 % of control

$$$$
>  <Compound>
CC(=O)C1CC[C@@]2(C)C(CC[C@H]3[C@@H]4CCC[C@H]([C@H](C)O)[C@@]4(C)CC[C@@H]32)C1 (stereo partly drawn)

>  <T/C>
91 % of control

$$$$
